# Test: qHTS of pediatric cancer cell lines to identify multiple opportunities for drug repurposing: Primary screen for NB-EBc1 cells (AID 1347095); also: potency is read from the fitted curve at half-maximal effect
# Condition Info: NB-EBc1 neuroblastoma viability, CellTiter-Glo luminescence, 48 h; series mostly up to 46 µM
Results filed as inconclusive are left out. Calls of active or inactive are those of the source. Calls follow the shape of the dose curve; as a rule, active = well fitted cell-killing curve with a large enough effect; inconclusive = small, poorly fitted or top-dose-only effect; inactive = no such curve, though single readings can be large or run the other way.
Reported Property: Potency

• CN1[C@H]2CC[C@H]1CC(OC(=O)c1c[nH]c3ccccc13)C2 (stereo partly specified) = inactive
• O=C(Nc1ncc(SCCN2CCCC2)s1)[C@]1(c2ccc(S(=O)(=O)C3CC3)cc2)C[C@@H]1C1CCCCC1 = 26.4 µM (active)
• CO[C@H]1/C=C\O[C@@]2(C)Oc3c(C)c(O)c4c(O)c(c5c(nc6cc(C)ccn65)c4c3C2=O)NC(=O)C(C)=CC=C[C@H](C)[C@H](O)[C@@H](C)[C@@H](O)[C@@H](C)[C@H](OC(C)=O)[C@H]1C = inactive
• CC(NCCc1ccc(O)cc1)C(O)c1ccc(O)cc1 (stereo unspecified) = inactive
• O=C(O)C1=CC(O)C(O)[C@H](O)C1 (stereo partly specified) = inactive
• CCC(C)SSc1ncc[nH]1 (stereo unspecified) = 5.9 µM (active)
• CC[C@H](C)C(=O)O[C@H]1C[C@H](O)C=C2C=C[C@H](C)[C@H](CC[C@@H](O)C[C@@H](O)CC(=O)O)[C@H]21 = inactive
• COc1c(C)c2c(c(O)c1CC=C(C)CCC(=O)O)C(=O)OC2 = 0.743 µM (active)
• CC1(COc2ccc3c(c2)ncn3-c2ccc3cccc(N4CCC(N)CC4)c3n2)COC1 = 0.001 µM (active)
• CC(=O)OCC(=O)[C@@]12OC(C)(C)O[C@H]1C[C@H]1[C@@H]3C[C@H](F)C4=CC(=O)C=C[C@]4(C)[C@@]3(F)[C@@H](O)C[C@@]12C = inactive
• CCNC(=O)CCCC=CC[C@@H]1[C@H](C=CC(O)CCc2ccccc2)[C@@H](O)C[C@@H]1O (stereo partly specified) = inactive
• CNC1[C@H](O)C(O[C@@H]2C(O)C(O[C@H]3O[C@H]([C@@H](C)NC)CC[C@H]3N)[C@@H](N)C[C@H]2N)OC[C@]1(C)O (stereo partly specified) = inactive
• COc1cc2ncn(-c3cc(OCc4ccccc4S(C)(=O)=O)c(C#N)s3)c2cc1OC = inactive
• O=C(O)Cc1cccc(OCCCN(Cc2cccc(C(F)(F)F)c2Cl)CC(c2ccccc2)c2ccccc2)c1 = 23.5 µM (active)
• COc1cc([C@@H]2c3cc4c(cc3[C@@H](O[C@@H]3O[C@@H]5CO[C@@H](C)O[C@@H]5[C@H](O)[C@@H]3O)[C@H]3COC(=O)[C@H]23)OCO4)cc(OC)c1O = 0.187 µM (active)
• C[C@]12C=CC(=O)C=C1CC[C@@H]1[C@@H]2[C@@H](O)C[C@@]2(C)[C@@H]1CC[C@]2(O)C(=O)CO = 14.8 µM (active)
• NC(=O)c1noc([C@H](CCCC2CCCCC2)CC(=O)NO)n1 = 20.9 µM (active)
• COc1ccc2c(c1)c(C1=C(c3c[nH]c4ccccc34)C(=O)NC1=O)cn2CCCN(C)C = 20.9 µM (active)
• O=S(=O)(NCCNCC=Cc1ccc(Br)cc1)c1cccc2cnccc12 = 16.6 µM (active)
• CN[C@@H](C)[C@H]1[C@H](O)C[C@@]2(C)[C@@H]3CC[C@H]4C(C)(C)[C@@H](NC)CC[C@@]45C[C@@]35CC[C@]12C = inactive
• Cc1ccccc1-n1c(Cn2nc(-c3cccc(O)c3)c3c(N)ncnc32)nc2cccc(C)c2c1=O = 0.0743 µM (active)
• CC[C@H](NC(=O)[C@H](C)NC)C(=O)N1C[C@@H](O)C[C@H]1Cc1c(-c2[nH]c3cc(F)ccc3c2C[C@H]2C[C@H](O)CN2C(=O)[C@H](CC)NC(=O)[C@H](C)NC)[nH]c2cc(F)ccc12 = 0.418 µM (active)
• COc1ccc(-c2ccc3ncc4c(c3c2)n(-c2ccc(N3CCNCC3)c(C(F)(F)F)c2)c(=O)n4C)cn1 = 0.0148 µM (active)
• Cn1c(=O)c(-c2c(Cl)cccc2Cl)cc2cnc(Nc3cccc(C(=O)O)c3)nc21 = 1.32 µM (active)
• C=CC(=O)Nc1cccc(Sc2nc(Nc3ccc(N4CCN(C)CC4)cc3)ncc2Cl)c1 = 9.35 µM (active)
• Cc1cnc(Nc2cccc(CN3CCOCC3)c2)nc1Nc1cccc(S(=O)(=O)NC(C)(C)C)c1 = 4.18 µM (active)
• COc1nccc(-c2c(-c3ccc(F)cc3)ncn2C2CCNCC2)n1 = inactive
• O=C1NC(=O)C(=Cc2ccc(-c3ccc(F)cc3O)o2)S1 = 5.26 µM (active)
• CNc1nc(Nc2ccc(C(=O)N3CCOCC3)cc2OC)ncc1Cl = inactive
• COc1cc(CNC(=O)CCCCC=CC(C)C)ccc1O = inactive
• C=CC[N+]1([C@H]2C[C@H]3[C@@H]4CC[C@H]5C[C@H](O)[C@@H](N6CCOCC6)C[C@]5(C)[C@@H]4CC[C@]3(C)[C@H]2OC(C)=O)CCCC1 = inactive
• O=C(O)c1nc(=O)[nH]c(=O)[nH]1 = inactive
• NS(=O)(=O)c1cc(Cl)c(Cl)c(S(N)(=O)=O)c1 = inactive
• O=C(c1ccc(F)c(F)c1Nc1ccc(I)cc1F)N1CC(O)([C@H]2CCCCN2)C1 = 1.66 µM (active)
• CC(C)CN(C[C@H](O)[C@H](Cc1ccccc1)NC(=O)O[C@H]1CCOC1)S(=O)(=O)c1ccc(N)cc1 = inactive
• Cc1[nH]c(C=C2C(=O)Nc3ccc(S(=O)(=O)N(C)c4cccc(Cl)c4)cc32)c(C)c1C(=O)N1CCN(C)CC1 = 14.8 µM (active)
